The reader will find reported pIC50 values listed item by item below.
Target: human recombinant H-PGDS (Homo sapiens)
Assay: Fluorescence intensity h-PGDS TBA enzyme assay
Type: biochemical
Details: Examples up to 622 (and 3a, 3b)
pIC50: −log10 of the molar value.
Readout: pIC50

> print(dat)
                                    molecule  data.value
 1  C=CCN(C)C(=O)c1ccc(N2CCC(NC(=O)c3ccc(-c4cccc(F)c4)nc3)CC2)nc1 [Example 563]        9.01
 2  O=C(NC1CCN(Cc2ccnc3cccnc23)CC1)c1ccc(-c2cccc(F)c2)nc1 [Example 450]        8.69
 3  COCCn1c(CN2CCC(NC(=O)c3ccc(-c4cccc(F)c4)nc3)CC2)nc2ccccc21 [Example 420]        8.47
 4  Cc1nc(C(F)(F)F)nc(N2CCC(NC(=O)c3ccc(-c4cccc(F)c4)nc3)CC2)c1C [Example 46]        8.76
 5  Cc1cc(N2CCC(NC(=O)c3ccc(-c4cccc(F)c4)nc3)CC2)nc(N)n1 [Example 45]        9.11
 6  COCCOc1c(CN2CCC(NC(=O)c3ccc(-c4cccc(F)c4)nc3)CC2)cccc1OC [Example 404]        9.33
 7  CCOC(=O)c1cnc(C(F)(F)F)nc1N1CCC(NC(=O)c2ccc(-c3cccc(F)c3)nc2)CC1 [Example 145]        8.23
 8  CC(C)(O)c1ccc(CN2CCC(NC(=O)c3ccc(-c4cccc(F)c4)nc3)CC2)cn1 [Example 472]        9.31
 9  Cc1ccc(-c2cccc(CN3CCC(NC(=O)c4ccc(-c5cccc(F)c5)nc4)CC3)c2)c(N)n1 [Example 380]        8.90
10  CC(C)(C)OC(=O)N1CCCC(CN2CCC(NC(=O)c3ccc(-c4cccc(F)c4)nc3)CC2)C1 (centres unmarked) [Example 333]        8.98
11  Cn1c(-c2cccc(O)c2)nc2c(N3CCC(NC(=O)c4ccc(-c5cccc(F)c5)nc4)CC3)ncnc21 [Example 109]        8.56
12  N#Cc1cc(CN2CCC(NC(=O)c3ccc(-c4cccc(F)c4)nc3)CC2)ccc1F [Example 303]        9.18
13  CCN(CC)C(=O)c1ccc(CN2CCC(NC(=O)c3ccc(-c4cccc(F)c4)nc3)CC2)cc1 [Example 271]        8.25
14  O=C(NC1CCN(c2ccc(C(=O)N3CCC3)cn2)CC1)c1ccc(-c2cccc(F)c2)nc1 [Example 564]        8.96
15  O=C(NC1CCN(C2CCC(O)(c3cncnc3)CC2)CC1)c1ccc(-c2cccc(F)c2)nc1 (centres unmarked) [Example 554]        8.76
16  Cc1noc(NC(=O)c2cccnc2N2CCC(NC(=O)c3ccc(-c4cccc(F)c4)nc3)CC2)c1C#N [Example 141]        9.14
17  COc1cccc(CN2CCC(NC(=O)c3ccc(-c4cccc(F)c4)nc3)CC2)c1 [Example 224]        9.47
18  Cc1nccc(CN2CCC(NC(=O)c3ccc(-c4cccc(F)c4)nc3)CC2)n1 [Example 389]        8.65
19  O=C(NC1CCN(Cc2ccccn2)CC1)c1ccc(-c2ccccc2F)nc1 [Example 587]        8.92
20  O=C(NC1CCN(Cc2nc3cccc4c3n2CCC4)CC1)c1ccc(-c2cccc(F)c2)nc1 [Example 448]        8.61
21  Cc1ncc2c(n1)CCC(CN1CCC(NC(=O)c3ccc(-c4cccc(F)c4)nc3)CC1)C2 (centres unmarked) [Example 401]        9.24
22  O=C(NC1CCN(Cc2c[nH]nc2-c2cccc(F)c2)CC1)c1ccc(-c2cccc(F)c2)nc1 [Example 439]        9.12
23  C[C@H](c1ccccc1)n1nnnc1N1CCC(NC(=O)c2ccc(-c3cccc(F)c3)nc2)CC1 [Example 104]        8.50
24  N#Cc1cccc(CN2CCC(NC(=O)c3ccc(-c4cccc(F)c4)nc3)CC2)c1 [Example 238]        9.87
25  O=C(NC1CCN(Cc2ccc(F)c(F)c2)CC1)c1ccc(-c2cccc(F)c2)nc1 [Example 193]        9.11
26  O=C(NC1CCN(Cc2cnn3c2CCCCC3)CC1)c1ccc(-c2cccc(F)c2)nc1 [Example 387]        8.73
27  CC(C)n1cnc2c(N3CCC(NC(=O)c4ccc(-c5cccc(F)c5)nc4)CC3)ncnc21 [Example 118]        9.05
28  CCC(C)N1CCC(NC(=O)c2ccc(-c3cccc(F)c3)nc2)CC1 (centres unmarked) [Example 545]        8.58
29  Cc1nc[nH]c1CN1CCC(NC(=O)c2ccc(-c3cccc(F)c3)nc2)CC1 [Example 296]        8.85
30  O=C(NC1CCN(Cc2cccc(CF)n2)CC1)c1ccc(-c2cccc(F)c2)nc1 [Example 463]        9.41
31  O=C(NC1CCN(CCCC(F)(F)F)CC1)c1ccc(-c2cccc(F)c2)nc1 [Example 312]        8.97
32  CCN(C)c1ncc2c(n1)CCC(CN1CCC(NC(=O)c3ccc(-c4cccc(F)c4)nc3)CC1)C2 (centres unmarked) [Example 398]        8.07

====

Target: human recombinant H-PGDS (Homo sapiens, UniProt O60760)
Sequence (O60760 whole entry): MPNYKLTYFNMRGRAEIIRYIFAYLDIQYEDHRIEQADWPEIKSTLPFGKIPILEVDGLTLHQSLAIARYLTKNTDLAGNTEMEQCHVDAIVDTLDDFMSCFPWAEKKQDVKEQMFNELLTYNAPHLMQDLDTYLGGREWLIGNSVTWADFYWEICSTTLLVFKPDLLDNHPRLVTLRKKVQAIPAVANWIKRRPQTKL
Assay: Fluorescence intensity h-PGDS TBA enzyme assay
Format: biochemical
Settings: Examples up to 622 (and 3a, 3b)
pIC50: −log10 of the molar value.
Readout: pIC50

> print(dat)
                                   compound  data.value
1  Cn1nncc1CN1CCC(NC(=O)c2ccc(-c3cccc(F)c3)nc2)CC1 [Example 495]        9.39
2  COc1ccc(-n2ccnc2CN2CCC(NC(=O)c3ccc(-c4cccc(F)c4)nc3)CC2)cc1 [Example 365]        9.89
3  COc1ccc2oc(N3CCC(NC(=O)c4ccc(-c5cccc(F)c5)nc4)CC3)nc2c1 [Example 91]        9.22
4  O=C(NC1CCN(c2ncnc3c2ncn3CC(F)(F)F)CC1)c1ccc(-c2cccc(F)c2)nc1 [Example 106]        9.06
5  COc1cccc(Cn2nnnc2N2CCC(NC(=O)c3ccc(-c4cccc(F)c4)nc3)CC2)c1 [Example 108]        8.89
6  O=C(NC1CCN(Cc2ccc(CN3CCOCC3)cc2)CC1)c1ccc(-c2cccc(F)c2)nc1 [Example 453]        8.85
7  CCC(CO)n1cnc2c(N3CCC(NC(=O)c4ccc(-c5cccc(F)c5)nc4)CC3)ncnc21 (centres unmarked) [Example 90]        9.52
8  O=C(NC1CCN(c2ncccc2C(=O)c2ccccn2)CC1)c1ccc(-c2cccc(F)c2)nc1 [Example 74]        9.53

====

Molecular target: human recombinant H-PGDS (Homo sapiens)
Assay: Fluorescence intensity h-PGDS TBA enzyme assay
Assay type: biochemical
Settings: Examples up to 622 (and 3a, 3b)
The reader will find reported IC50 values listed item by item below.
Readout: IC50

> print(dat)
                                smiles.text  data.value
1  O=C(NC1CCN(Cc2cccc(-c3cncnc3)c2)CC1)c1ccc(-c2cccc(F)c2)nc1     85.4 pM
2  COc1ccc(CN2CCC(NC(=O)c3ccc(-c4cccc(F)c4)nc3)CC2)cc1F      653 pM
3  CCOC(=O)c1csc(CN2CCC(NC(=O)c3ccc(-c4cccc(F)c4)nc3)CC2)n1      760 pM
4  O=C(NC1CCN(Cc2cc(F)c(F)cc2F)CC1)c1ccc(-c2cccc(F)c2)nc1      448 pM

====

The reader will find reported IC50 values listed item by item below.
Target: human recombinant H-PGDS (Homo sapiens)
Assay: Slightly modified h-PGDS TBA enzyme assay (Examples 623 onwards)
Format: biochemical
Where a name gives a salt, the structure may show the parent alone.
Readout: IC50 (nM)

> print(dat)
                                    compound  unit.abbreviation  data.value
 1  CC(C)(C)C(=O)N1CCC(NC(=O)c2ccc(-c3ccccc3O)nc2)CC1 [Example 627]                 nM        6.75
 2  N#Cc1ccccc1-c1ccc(C(=O)NC2CCN(CC(F)(F)F)CC2)cn1 [Example 624]                 nM          36
 3  CC(=O)N1C[C@@H]2[C@H](C1)[C@H]2NC(=O)c1ccc(-c2cccc(F)c2)nc1 [Example 654]                 nM        33.8
 4  CC(C)S(=O)(=O)N1CCC(NC(=O)c2ccc(-c3ccccc3O)nc2)CC1 [Example 633]                 nM        16.6
 5  CC(C)S(=O)(=O)N1CCC(NC(=O)c2ccc(-c3cc(F)ccc3O)nc2)CC1 [Example 642]                 nM        13.9
 6  CCOC(=O)N1CCC(NC(=O)c2ccc(-c3ccccc3O)nc2)CC1 [Example 628]                 nM        6.22
 7  Cn1nnnc1N1CCC(NC(=O)c2ccc(-c3cc(F)ccc3O)nc2)CC1 [Example 643]                 nM        7.77
 8  O=C1CC(NC(=O)c2ccc(-c3cccc(F)c3)nc2)c2ccccc2N1 (stereo not shown) [Example 650]                 nM       0.568
 9  CCCN1C[C@@H]2[C@H](C1)[C@H]2NC(=O)c1ccc(-c2cccc(F)c2)nc1 [Example 655]                 nM        66.8
10  O=C(N[C@H]1[C@@H]2CNC[C@@H]21)c1ccc(-c2cccc(F)c2)nc1 [Example 653, di-hydrochloride]                 nM         177
11  O=C(NC1CCN(c2cccnn2)CC1)c1ccc(-c2ccccc2O)nc1 [Example 632]                 nM        5.57
12  CCN1CCC(NC(=O)c2ccc(-c3cc(F)ccc3O)nc2)CC1 [Example 640]                 nM         129
13  O=C(NC1CCN(c2ncccn2)CC1)c1ccc(-c2ccccc2O)nc1 [Example 625]                 nM        4.06
14  O=C(NC1CCN(CC(F)(F)F)CC1)c1ccc(-c2cc(F)ccc2O)nc1 [Example 635]                 nM        10.9
15  O=C(N[C@H]1[C@@H]2CN(CC(F)(F)F)C[C@@H]21)c1ccc(-c2cccc(F)c2)nc1 [Example 651]                 nM        2.01
16  COCCN1CCC(NC(=O)c2ccc(-c3cc(F)ccc3O)nc2)CC1 [Example 637]                 nM        62.4
17  CC(C)(C)C(=O)N1CCC(NC(=O)c2ccc(-c3cc(F)ccc3O)nc2)CC1 [Example 636]                 nM        17.2
18  COCCN1CCC(NC(=O)c2ccc(-c3ccccc3O)nc2)CC1 [Example 630]                 nM        32.8
19  CCCN1CCC(NC(=O)c2ccc(-c3cc(F)ccc3O)nc2)CC1 [Example 638]                 nM        83.3
